The reader will find reported IC50 values listed item by item below.
target: Glycogen synthase kinase-3 (Homo sapiens, UniProt P49840+P49841); assay: Inhibition of human GSK3alpha/ GSK3-beta; format: protein assay

Example entries begin here.
CN1C(=O)/C(=C/c2ccc3c(c2)OCO3)N=C1NCCNCc1ccc2c(c1)OCC2 :: > 10 µM
CN1C(=O)/C(=C/c2ccc3c(c2)OCO3)N=C1NCCNCc1ccc2c(c1)OCCO2 :: > 10 µM
COc1ccc(CNCCNC2=N/C(=C\c3ccc4c(c3)OCO4)C(=O)N2C)cc1 :: > 10 µM

# input Find the recorded IC50 belonging to `CN1C(=O)/C(=C/c2ccc3c(c2)OCO3)N=C1NCC/N=C/c1ccc2c(c1)OCC2` and report it.
# output 15 µM

# input Same for `COc1cc(/C=N/CCNC2=N/C(=C\c3ccc4c(c3)OCO4)C(=O)N2C)cc(OC)c1OC`
# output > 100 µM

----------
// reported IC50 per item
biological target: Casein kinase I isoform alpha/subunit beta (Homo sapiens, UniProt P48729+P67870); test: Inhibition of human CK1-alpha/CK2beta
Sequence (P67870 whole entry, canonical isoform): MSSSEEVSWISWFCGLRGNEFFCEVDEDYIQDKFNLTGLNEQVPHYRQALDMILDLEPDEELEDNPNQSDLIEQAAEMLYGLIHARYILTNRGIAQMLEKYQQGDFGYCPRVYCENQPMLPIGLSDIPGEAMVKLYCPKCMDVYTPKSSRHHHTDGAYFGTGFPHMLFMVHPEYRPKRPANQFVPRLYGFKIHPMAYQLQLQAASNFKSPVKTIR
Sequence (P48729 whole entry, canonical isoform): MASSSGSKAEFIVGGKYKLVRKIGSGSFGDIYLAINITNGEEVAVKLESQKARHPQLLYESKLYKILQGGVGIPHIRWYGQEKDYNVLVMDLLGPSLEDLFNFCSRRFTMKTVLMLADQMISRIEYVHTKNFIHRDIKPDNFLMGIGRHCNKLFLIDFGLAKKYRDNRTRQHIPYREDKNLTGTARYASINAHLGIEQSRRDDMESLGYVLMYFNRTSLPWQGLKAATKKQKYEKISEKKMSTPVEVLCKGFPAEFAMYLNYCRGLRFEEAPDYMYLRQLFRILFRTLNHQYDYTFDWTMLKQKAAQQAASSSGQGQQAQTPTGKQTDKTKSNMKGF

Example compounds with recorded IC50:
CN1C(=O)/C(=C/c2ccc3c(c2)OCO3)N=C1NCCNCc1ccccc1 :: > 100 µM
CN1C(=O)/C(=C/c2ccc3c(c2)OCO3)N=C1NCC/N=C/c1ccc2c(c1)OCCO2 :: > 100 µM
CN1C(=O)/C(=C/c2ccc3c(c2)OCO3)N=C1NCCNCc1ccc([N+](=O)[O-])cc1 :: > 100 µM
CN1C(=O)/C(=C/c2ccc3c(c2)OCO3)N=C1NCC/N=C/c1ccc2c(c1)OCC2 :: > 100 µM

# input // returns reported IC50 for input `CN1C(=O)/C(=C/c2ccc3c(c2)OCO3)N=C1NCCNCc1ccc2c(c1)OCC2`
# output > 100 µM

# input And the next one, `COc1ccc(/C=N/CCNC2=N/C(=C\c3ccc4c(c3)OCO4)C(=O)N2C)cc1` ?
# output > 100 µM

----------
molecular target: Glycogen synthase kinase-3 (Homo sapiens, UniProt P49840+P49841); assay: Inhibition of human GSK3alpha/ GSK3-beta; type: protein assay
REPORTED METRIC: IC50

Answered examples (5):
CN1C(=O)/C(=C/c2ccc3c(c2)OCO3)N=C1N :: 15 µM
CN1C(=O)/C(=C/c2ccc3c(c2)OCO3)N=C1NCCNCc1ccc2c(c1)OCO2 :: > 10 µM
COc1cc(CNCCNC2=N/C(=C\c3ccc4c(c3)OCO4)C(=O)N2C)cc(OC)c1OC :: > 100 µM
CN1C(=O)/C(=C/c2ccc3c(c2)OCO3)N=C1NCCNCc1ccccc1 :: > 10 µM
CN1C(=O)/C(=C/c2ccc3c(c2)OCO3)N=C1NCCN.Cl :: 1.4 µM

# input Give the measured IC50 of `CN1C(=O)/C(=C/c2ccc3c(c2)OCO3)N=C1NCCNCc1ccc([N+](=O)[O-])cc1` .
# output > 100 µM

# input Note, next up: `CN1C(=O)/C(=C/c2ccc3c(c2)OCO3)N=C1NCC/N=C/c1ccc(Cl)cc1`
# output > 100 µM

# input Next compound up: `CN1C(=O)/C(=C/c2ccc3c(c2)OCO3)N=C1NCC/N=C/c1ccc([N+](=O)[O-])cc1`
# output > 100 µM

# input What do you have for `CN1C(=O)/C(=C/c2ccc3c(c2)OCO3)N=C1NCC/N=C/c1ccc2c(c1)OCCO2` ?
# output 38 µM

----------
biological target: Glycogen synthase kinase-3 (Homo sapiens, UniProt P49840+P49841); test: Inhibition of human GSK3alpha/ GSK3-beta; type: protein assay
REPORTED METRIC: IC50 (µM)

COc1ccc(/C=N/CCNC2=N/C(=C\c3ccc4c(c3)OCO4)C(=O)N2C)cc1 :: 7.3

1: CN1C(=O)/C(=C/c2ccc3c(c2)OCO3)N=C1NCC/N=C/c1ccccc1
2: CN1C(=O)/C(=C/c2ccc3c(c2)OCO3)N=C1NCC/N=C/c1ccc2c(c1)OCO2
# input Of 1 and 2 , which carries the smaller reported IC50 figure? Response format: the label of the selected entry.
# output 2
